As shown below, each of these compounds has a reported solubility thermodynamic value.
# Method description: Solubility determination in oil (Table 10)
# Assay setup: 40 °C, water, thermodynamic from solid, Equilibrium solubility: Water, Heating Temp. 60 °C, Obs. Temp. 40 °C
# value in µg/mL; strip the unit string

Some solved cases for reference:
• CCCCCCCC/C=C\CCCCCCCCCCCC(=O)Oc1ccc2c3c1O[C@H]1C(=O)CC[C@@]4(O)C(C2)N(CC2CC2)CC[C@]314 = 31.4
• CCCCCCCCCCCCCCCC(=O)Oc1ccc2c3c1O[C@H]1C(=O)CC[C@@]4(O)C(C2)N(CC2CC2)CC[C@]314 = 6.6
• CCCCCCCCCCCCCCCCOC(=O)Oc1ccc2c3c1O[C@H]1C(=O)CC[C@@]4(O)C(C2)N(CC2CC2)CC[C@]314 = 0.6

Continue with the next compound.
Recorded solubility thermodynamic for CCCCCCCCOC(=O)Oc1ccc2c3c1O[C@H]1C(=O)CC[C@@]4(O)C(C2)N(CC2CC2)CC[C@]314 , please? 9.4

---

# Method description: Rat pharmacokinetic studies, intramuscular administration
# Format: in vivo, male Sprague Dawley Rats
# Assay setup: male, Sprague Dawley, rat, plasma, im; 165 mg/kg, Cottonseed oil + 1% Benzyl Alcohol; read-out: Half-life t1/2 (hour) prodrug (converted)
Measured property: half-life (h)
# value in h; strip the unit string

Recorded half-life for C=C1CC[C@@]2(O)C3Cc4ccc(OCOC(=O)OCCCCCCCCCCCC)c5c4[C@@]2(CCN3CC2CC2)[C@H]1O5 [Compound 24] , please? 851

---

# Method description: Solubility determination in oil (Table 10)
# Assay setup: 40 °C, oil or lipid, thermodynamic from solid, Approximate Solubility in Excipient: Cottonseed oil, Heating Temp. 40 °C, Obs. Temp. 40 °C
As shown below, each of these compounds has a reported solubility value.

Some solved cases for reference:
• C=C1CC[C@@]2(O)C3Cc4ccc(OC(=O)CC(C)(C)C)c5c4[C@@]2(CCN3CC2CC2)[C@H]1O5 [Compound 38] = > 407 mg/mL
• CC(C)(C)CC(=O)Oc1ccc2c3c1O[C@H]1C(=O)CC[C@@]4(O)C(C2)N(CC2CC2)CC[C@]314 [Compound 42] = < 51 mg/mL
• C=C1CC[C@@]2(O)C3Cc4ccc(OC(=O)CCCCCCCCCCCCCCCCCCCCC)c5c4[C@@]2(CCN3CC2CC2)[C@H]1O5 [Compound 14] = < 50 mg/mL

Recorded solubility for C=C1CC[C@@]2(O)C3Cc4ccc(OC(=O)CCCCCCC/C=C/CCCCCCCC)c5c4[C@@]2(CCN3CC2CC2)[C@H]1O5 [Compound 15] , please? < 51 mg/mL

---

# Method description: Rat pharmacokinetic studies, intramuscular administration
# Assay type: in vivo, male Sprague Dawley Rats
# Assay setup: male, Sprague Dawley, rat, plasma, im; 80 mg/kg, Cottonseed + 1% Benzyl Alcohol; read-out: AUC0-inf (ng · h/mL) prodrug
Measured property: AUC(0-inf) (ng·h/mL)
# value in ng·h/mL; strip the unit string

Recorded AUC(0-inf) for C=C1CC[C@@]2(O)C3Cc4ccc(OCOC(=O)OCCCCCCCCCCCC)c5c4[C@@]2(CCN3CC2CC2)[C@H]1O5 [Compound 24] , please? 147

---

# Method description: Polymorph screening of solid state drug substances (Table 23)
# Assay type: physicochemical
# Assay setup: Acetone, stirred 50 °C 72 hours, dried solid
Measured property: Dry method and appearance

Some solved cases for reference:
• C=C1CC[C@@]2(O)C3Cc4ccc(OC(=O)OCCCCCCCCCCCCCCCC)c5c4[C@@]2(CCN3CC2CC2)[C@H]1O5 = Evaporation/white powder
• C=C1CC[C@@]2(O)C3Cc4ccc(OC(=O)OCCCCCCCCCCCCCC)c5c4[C@@]2(CCN3CC2CC2)[C@H]1O5 = Evaporation/white powder
• CCCCCCCCCCCCCCCC(=O)Oc1ccc2c3c1O[C@H]1C(=O)CC[C@@]4(O)C(C2)N(CC2CC2)CC[C@]314 = Evaporation/white powder
• C=C1CC[C@@]2(O)C3Cc4ccc(OC(=O)NC(C)(C)C)c5c4[C@@]2(CCN3CC2CC2)[C@H]1O5 = Evaporation/white powder

Continue with the next compound.
Recorded Dry method and appearance for C=C1CC[C@@]2(O)C3Cc4ccc(OC(=O)CCCCCCCCCCCCCCCCCCCCC)c5c4[C@@]2(CCN3CC2CC2)[C@H]1O5 , please? Evaporation/white powder
